Exercise: for every item that follows, state its recorded viability at 120 h, 1 µM.
methodSummary: Cytotoxicity against mouse ScGT1 cells assessed as cell viability at 1 uM after 5 days by calcein-AM assay
Assay type: cell-based
settings: read-out: Activity
Write it as a number; the unit % goes unstated.

Q. Give a short answer stating reported viability at 120 h, 1 µM for O=C1C=C(NCCCNCCCNc2ccnc3cc(Cl)ccc23)C(=O)C=C1NCCCNCCCNc1ccnc2cc(Cl)ccc12 .
A. 105

Q. Note down viability at 120 h, 1 µM recorded for COc1ccc2nccc(NCCCNC3=CC(=O)C(NCCCNc4ccnc5ccc(OC)cc45)=CC3=O)c2c1
A. 87.2

Q. Please indicate viability at 120 h, 1 µM recorded for O=C1C=C(NCCCNc2ccnc3cc(Cl)ccc23)C(=O)C=C1NCCCNc1ccnc2cc(Cl)ccc12
A. 100

Q. Return the recorded viability at 120 h, 1 µM value; entry: COc1ccc2nc3cc(Cl)ccc3c(NCCNC3=CC(=O)C(NCCNc4c5ccc(Cl)cc5nc5ccc(OC)cc45)=CC3=O)c2c1
A. 18.2

Q. Please list viability at 120 h, 1 µM recorded for the compound O=C1C=C(NCCNc2ccnc3cc(Cl)ccc23)C(=O)C=C1NCCNc1ccnc2cc(Cl)ccc12
A. 115

Q. Please give the documented viability at 120 h, 1 µM of COc1ccc2nc3cc(Cl)ccc3c(NCCCNC3=CC(=O)C(NCCCNc4c5ccc(Cl)cc5nc5ccc(OC)cc45)=CC3=O)c2c1
A. 65.5

Q. Fill in viability at 120 h, 1 µM for record O=C1C=C(NCCCNc2ccnc3cc(Cl)ccc23)C(=O)c2ccccc21
A. 94.3
